Each entry below carries its reported pKi.
Target: recombinant human NK3 receptor (Homo sapiens, UniProt P29371)
Construct: expressed in transfected cells; host or cells: HEK293 cells (transient expression), membranes
Sequence (P29371 1-465): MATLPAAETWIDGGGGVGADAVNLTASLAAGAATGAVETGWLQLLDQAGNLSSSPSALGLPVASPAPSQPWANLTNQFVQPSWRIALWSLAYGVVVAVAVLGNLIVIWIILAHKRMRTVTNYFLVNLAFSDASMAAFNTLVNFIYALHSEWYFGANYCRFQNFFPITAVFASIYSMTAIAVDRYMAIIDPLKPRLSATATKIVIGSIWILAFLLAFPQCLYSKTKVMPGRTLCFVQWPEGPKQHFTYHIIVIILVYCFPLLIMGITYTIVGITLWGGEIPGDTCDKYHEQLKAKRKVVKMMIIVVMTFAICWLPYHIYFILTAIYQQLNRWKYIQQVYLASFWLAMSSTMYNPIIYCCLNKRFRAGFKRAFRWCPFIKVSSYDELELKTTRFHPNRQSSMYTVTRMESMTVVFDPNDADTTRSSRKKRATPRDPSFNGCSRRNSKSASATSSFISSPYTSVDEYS
Assay: [3H]SR142801 competition binding assay
Details: membranes from HEK293 cells transiently expressing recombinant human NK3 receptor; [3H]SR142801 radioligand; 75 min at RT; Ki by Cheng-Prussoff; read-out: Data Ki (hNK-3 receptor affinity)
Give only the number. pKi is defined as minus log10 of concentration in molar units.

[
  {
    "molecule": "C[C@H](NC(=O)C1(c2ccc(F)cc2)CCN(C(=O)c2ccc(N3CCS(=O)(=O)CC3)cc2)CC1)C1CCCCC1 [Example 91]",
    "pKi": 8.12
  },
  {
    "molecule": "CC(C)c1nc(-c2ccc(C(=O)N3CCC(C(=O)N[C@@H](C)c4ccccc4)(c4ccccc4)CC3)cc2)no1 [Example 66]",
    "pKi": 7.23
  },
  {
    "molecule": "C[C@H](NC(=O)C1(c2ccccc2)CCN(C(=O)c2ccc(N3CCOCC3)nc2)CC1)c1ccccc1 [Example 10]",
    "pKi": 7.11
  }
]

(Q) Given CC(=O)c1ccc(N2CCN(C(=O)N3CCC(C(=O)N[C@@H](C)c4ccccc4)(c4ccccc4)CC3)CC2)cc1 [Example 207] , respond with its pKi.
(A) 7.44

(Q) Given Cc1noc(-c2ccc(C(=O)N3CCC(C(=O)N[C@@H](C)c4ccc(F)cc4)(c4ccc(F)cc4)CC3)cc2)n1 [Example 88] , respond with its pKi.
(A) 8.21

(Q) Given O=C(c1ccc(-c2ccc(F)cc2)cc1)N1CCC(C(=O)NCc2ccc(F)cc2)(c2ccc(F)cc2)CC1 [Example 136] , respond with its pKi.
(A) 7.26

(Q) Given Cc1noc(-c2ccc(C(=O)N3CCC(C(=O)N[C@@H](C)c4ccc(Cl)cc4)(c4ccccc4)CC3)cc2)n1 [Example 104] , respond with its pKi.
(A) 7.95

(Q) Given C[C@H](NC(=O)C1(c2ccccc2)CCN(C(=O)N2CCN(c3ccc(C#N)cn3)CC2)CC1)c1ccccc1 [Example 227] , respond with its pKi.
(A) 7.60

(Q) Given Cc1noc(-c2ccc(C(=O)N3CCC(C(=O)N[C@@H](C)c4ccccc4)(c4ccccc4)CC3)cc2)n1 [Example 43] , respond with its pKi.
(A) 8.49

Source: patent US8324250B2
